assay target: hNTS2 receptor (Homo sapiens, UniProt O95665)
Construct: membranes prepared from them
Sequence (O95665 whole entry): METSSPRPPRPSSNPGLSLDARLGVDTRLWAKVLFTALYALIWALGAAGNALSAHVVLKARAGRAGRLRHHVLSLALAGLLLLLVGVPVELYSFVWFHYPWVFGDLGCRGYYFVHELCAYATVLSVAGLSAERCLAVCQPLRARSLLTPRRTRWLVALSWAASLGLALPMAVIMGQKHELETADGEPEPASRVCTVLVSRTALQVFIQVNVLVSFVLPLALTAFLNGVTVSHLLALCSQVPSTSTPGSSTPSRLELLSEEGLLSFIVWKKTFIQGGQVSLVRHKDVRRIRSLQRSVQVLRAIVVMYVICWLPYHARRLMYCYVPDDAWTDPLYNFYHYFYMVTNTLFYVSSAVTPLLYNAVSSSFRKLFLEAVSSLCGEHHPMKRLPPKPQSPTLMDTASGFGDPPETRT
experimental details: Competitive radioligand binding assay on the hNTS2 receptor
condition description: displacement of 125I-[Tyr3]-NT, membranes of 1321N1 cells expressing hNTS2; read-out: IC50 NTS2 (converted)
Where a SMILES comes first, the peptide text is derived from it. Bridges are numbered along the chain shown (N, C = ends). [ ]: non-standard residue; d: D form. AllylGly = C=CC[C@H](N)C(=O)O; Dab = NCC[C@H](N)C(=O)O
result type: IC50 (µM)

Field: example entries. Status: answers known.
CC(C)C[C@H](NC(=O)[C@H](Cc1ccc(O)cc1)NC(=O)[C@@H]1CC(=O)NCC[C@H](N)C(=O)N[C@@H](CCCCN)C(=O)N[C@@H](CCCCN)C(=O)N1)C(=O)O [compound 95, c[DabKKD]YL] (H-[Dab]KKDYL-OH; lactam 1-4) :: 8.81
CC(C)C[C@H](NC(=O)[C@H](Cc1ccc(O)cc1)NC(=O)[C@@H]1CCNC(=O)CC[C@H](N)C(=O)N[C@@H](CCCCN)C(=O)N[C@@H](CCCCN)C(=O)N1)C(=O)O [compound 104, c[EKKDab]YL] (H-EKK[Dab]YL-OH; lactam 1-4) :: 16.5

I: CC(C)C[C@H](NC(=O)[C@H](Cc1ccc(O)cc1)NC(=O)[C@@H]1CC=CC[C@H](N)C(=O)N[C@@H](CCCCN)C(=O)N[C@@H](CCN)C(=O)N1)C(=O)O [compound 52, c[G(All)KDabG(All)]YL] (H-[AllylGly]K[Dab][AllylGly]YL-OH; staple 1-4)
II: CC(C)C[C@H](NC(=O)[C@H](C)NC(=O)[C@@H]1CC=CC[C@H](N)C(=O)N[C@@H](CCCCN)C(=O)N[C@@H](CCCCN)C(=O)N1)C(=O)O [compound 138, c[G(All)KKG(All)]AL] (H-[AllylGly]KK[AllylGly]AL-OH; staple 1-4)
INPUT: Of I and II , whose reported IC50 is the larger number? Respond with the label that goes with your answer.
OUTPUT: II
(II: 0.582 µM, I: 0.244 µM)

----------
assay target: hNTS2 receptor (Homo sapiens, UniProt O95665)
Construct: membranes prepared from them
experimental details: Competitive radioligand binding assay on the hNTS2 receptor
condition description: ratio IC50 for NTS1 : IC50 for NTS2
Where a SMILES comes first, the peptide text is derived from it. Bridges are numbered along the chain shown (N, C = ends). [ ]: non-standard residue; d: D form. Cit = NC(=O)NCCC[C@H](N)C(=O)O; AllylGly = C=CC[C@H](N)C(=O)O
result type: Selectivity

Illustrative cases are given below, each with its answer.
CC(C)C[C@H](NC(=O)[C@H](Cc1ccc(O)cc1)NC(=O)[C@@H]1CC=CC[C@H](N)C(=O)N[C@@H](CCCNC(N)=O)C(=O)N[C@@H](CCCCN)C(=O)N1)C(=O)O [compound 147, c[G(All)citrullineKG(All)]YL] (H-[AllylGly][Cit]K[AllylGly]YL-OH; staple 1-4) :: 167
CC(C)C[C@H](NC(=O)[C@H](Cc1ccc(Br)cc1)NC(=O)C1(C)CCCC=CCCC(=O)N[C@@H](CCCCN)C(=O)N[C@@H](CCCCN)C(=O)N1)C(=O)O (stereo partly drawn) [compound 136] :: 2653

P: CC1(C(=O)N[C@@H](Cc2ccc(Br)cc2)C(=O)N[C@@H](CC2CCCC2)C(=O)O)CCCC=CCCC(=O)N[C@@H](CCCCN)C(=O)N[C@@H](CCCCN)C(=O)N1 (stereo partly drawn) [compound 137]
Q: CC(C)C[C@H](NC(=O)[C@H](C)NC(=O)[C@@H]1CC=CC[C@H](N)C(=O)N[C@@H](CCCCN)C(=O)N[C@@H](CCCCN)C(=O)N1)C(=O)O [compound 138, c[G(All)KKG(All)]AL] (H-[AllylGly]KK[AllylGly]AL-OH; staple 1-4)
INPUT: Between P and Q , which one shows the larger Selectivity value? Pick one and reply with its label.
OUTPUT: P
(P: 10428, Q: 172)

----------
Reported pIC50 values follow for various compounds
assay target: hNTS1 receptor (Homo sapiens, UniProt P30989)
Construct: membranes prepared from them
Sequence (P30989 whole entry): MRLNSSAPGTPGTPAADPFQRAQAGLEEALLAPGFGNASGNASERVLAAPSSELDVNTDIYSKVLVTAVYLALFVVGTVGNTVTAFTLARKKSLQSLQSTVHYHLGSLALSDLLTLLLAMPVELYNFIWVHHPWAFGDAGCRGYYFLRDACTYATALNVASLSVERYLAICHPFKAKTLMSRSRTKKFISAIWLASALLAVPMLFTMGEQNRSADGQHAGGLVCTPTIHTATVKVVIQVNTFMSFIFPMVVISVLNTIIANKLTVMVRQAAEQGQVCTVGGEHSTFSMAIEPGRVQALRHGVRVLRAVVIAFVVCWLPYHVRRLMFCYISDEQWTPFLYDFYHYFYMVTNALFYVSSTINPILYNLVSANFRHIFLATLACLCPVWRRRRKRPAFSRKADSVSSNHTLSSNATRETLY
experimental details: Competitive radioligand binding assay on the hNTS1 receptor
condition description: displacement of 125I-[Tyr3]-NT, membranes of CHO-K1 cells expressing hNTS1; read-out: IC50 NTS1
pIC50: −log10 of the molar value. Where a SMILES comes first, the peptide text is derived from it. Bridges are numbered along the chain shown (N, C = ends). [ ]: non-standard residue; d: D form. Phe(4-tBu) = CC(C)(C)c1ccc(C[C@H](N)C(=O)O)cc1; Ala(cHept) = N[C@@H](CC1CCCCCC1)C(=O)O; AllylGly = C=CC[C@H](N)C(=O)O; Cba = N[C@@H](CC1CCC1)C(=O)O

NCCCC[C@@H]1NC(=O)[C@H](CCCCN)NC(=O)[C@@H](N)CC=CC[C@@H](C(=O)N[C@@H](Cc2ccc(O)cc2)C(=O)N[C@@H](CC2CCC2)C(=O)O)NC1=O [compound 66, c[G(All)KKG(All)]YA(cyclobutyl)] (H-[AllylGly]KK[AllylGly]Y[Cba]-OH; staple 1-4) :: < 4.00
CC(C)C[C@H](NC(=O)[C@H](Cc1ccc(C(C)(C)C)cc1)NC(=O)[C@@H]1CC=CC[C@H](N)C(=O)N[C@@H](CCCCN)C(=O)N[C@@H](CCCCN)C(=O)N1)C(=O)O [compound 110, c[G(All)KKG(All)]F(4-tbu)L] (H-[AllylGly]KK[AllylGly][Phe(4-tBu)]L-OH; staple 1-4) :: < 4.00

Now take the following compound into account.
INPUT: Under hNTS1 receptor (Homo sapiens, UniProt P30989): pIC50 value of NCCCC[C@@H]1NC(=O)[C@H](CCCCN)NC(=O)[C@@H](N)CC=CC[C@@H](C(=O)N[C@@H](Cc2ccc(O)cc2)C(=O)N[C@@H](CC2CCCCCC2)C(=O)O)NC1=O [compound 68, c[G(All)KKG(All)]YA(cycloheptyl)] (H-[AllylGly]KK[AllylGly]Y[Ala(cHept)]-OH; staple 1-4) ?
OUTPUT: < 4.00

----------
Measured Selectivity of individual entries
assay target: hNTS2 receptor (Homo sapiens, UniProt O95665)
Construct: membranes prepared from them
experimental details: Competitive radioligand binding assay on the hNTS2 receptor
condition description: ratio IC50 for NTS1 : IC50 for NTS2
*1 amine or outer side, *2 acyl side, *3 side chain or, on linkers, in order; H or OH if unused. Where a SMILES comes first, the peptide text is derived from it. Bridges are numbered along the chain shown (N, C = ends). [ ]: non-standard residue; d: D form. ξ: configuration not given here. ξαMeNle(6-ylidene) = CC(CCCC=[*:3])(N[*:1])C(=O)[*:2]; Ala(cPent) = N[C@@H](CC1CCCC1)C(=O)O; 2Pal = N[C@@H](Cc1ccccn1)C(=O)O; 3Pal = N[C@@H](Cc1cccnc1)C(=O)O; AllylGly = C=CC[C@H](N)C(=O)O
Please reply with the value in numeric form only.

CC1(C(=O)N[C@@H](Cc2ccc(O)cc2)C(=O)N[C@@H](CC2CCCC2)C(=O)O)CCCC=CC[C@H](N)C(=O)N[C@@H](CCCCN)C(=O)N[C@@H](CCCCN)C(=O)N1 (some centres unmarked) [compound 128] (H-[AllylGly]KK[ξαMeNle(6-ylidene)]Y[Ala(cPent)]-OH; staple 1-4) :: 12788
CC(C)C[C@H](NC(=O)[C@H](Cc1cccnc1)NC(=O)[C@@H]1CC=CC[C@H](N)C(=O)N[C@@H](CCCCN)C(=O)N[C@@H](CCCCN)C(=O)N1)C(=O)O [compound 169, c[G(All)KKG(All)]A(3-pyridyl)L] (H-[AllylGly]KK[AllylGly][3Pal]L-OH; staple 1-4) :: 427
CC(C)C[C@H](NC(=O)[C@H](Cc1ccccn1)NC(=O)[C@@H]1CC=CC[C@H](N)C(=O)N[C@@H](CCCCN)C(=O)N[C@@H](CCCCN)C(=O)N1)C(=O)O [compound 165, c[G(All)KKG(All)]A(2-pyridyl)L] (H-[AllylGly]KK[AllylGly][2Pal]L-OH; staple 1-4) :: 20

Consider the record given below.
INPUT: Give the measured Selectivity of `NCCCC[C@@H]1NC(=O)CCC=CC[C@@H](C(=O)N[C@@H](Cc2ccc(Br)cc2)C(=O)N[C@@H](CC2CCCC2)C(=O)O)NC(=O)[C@H](CCCCN)NC1=O` .
OUTPUT: 5650

----------
The compounds listed here are annotated with their Selectivity.
assay target: hNTS2 receptor (Homo sapiens)
Construct: membranes prepared from them
experimental details: Competitive radioligand binding assay on the hNTS2 receptor
condition description: ratio IC50 for NTS1 : IC50 for NTS2
Where a SMILES comes first, the peptide text is derived from it. Bridges are numbered along the chain shown (N, C = ends). [ ]: non-standard residue; d: D form. Ala(E-styryl) = N[C@@H](C/C=C/c1ccccc1)C(=O)O; Phe(4-Br) = N[C@@H](Cc1ccc(Br)cc1)C(=O)O; Phe(3-I) = N[C@@H](Cc1cccc(I)c1)C(=O)O; Phe(4-I) = N[C@@H](Cc1ccc(I)cc1)C(=O)O; Ala(cPent) = N[C@@H](CC1CCCC1)C(=O)O; AllylGly = C=CC[C@H](N)C(=O)O

Known Selectivity results, listed for orientation:
CC(C)C[C@H](NC(=O)[C@H](Cc1ccc(I)cc1)NC(=O)[C@@H]1CC=CC[C@H](N)C(=O)N[C@@H](CCCCN)C(=O)N[C@@H](CCCCN)C(=O)N1)C(=O)O [compound 78, c[G(All)KKG(All)]F(4-iodo)L] (H-[AllylGly]KK[AllylGly][Phe(4-I)]L-OH; staple 1-4) :: >6452
CC(C)C[C@H](NC(=O)[C@H](Cc1ccc(Br)cc1)NC(=O)[C@@H]1CC=CC[C@H](N)C(=O)N[C@@H](CCCCN)C(=O)N[C@@H](CCCCN)C(=O)N1)C(=O)O [compound 116, c[G(All)KKG(All)]F(4-bromo)L] (H-[AllylGly]KK[AllylGly][Phe(4-Br)]L-OH; staple 1-4) :: >6443
CC(C)C[C@H](NC(=O)[C@H](Cc1ccc(O)cc1)NC(=O)[C@@H]1CCC(=O)NCCCC[C@H](N)C(=O)N[C@@H](CCCCN)C(=O)N[C@@H](CCCCN)C(=O)N1)C(=O)O [compound 101, c[KKKE]YL] (H-KKKEYL-OH; lactam 1-4) :: >111
CC(C)C[C@H](NC(=O)[C@H](CC1CCCC1)NC(=O)[C@@H]1CC=CC[C@H](N)C(=O)N[C@@H](CCCCN)C(=O)N[C@@H](CCCCN)C(=O)N1)C(=O)O [compound 142, c[G(All)KKG(All)]A (cyclopentyl)L] (H-[AllylGly]KK[AllylGly][Ala(cPent)]L-OH; staple 1-4) :: 490
CC(C)C[C@H](NC(=O)[C@H](Cc1cccc(I)c1)NC(=O)[C@@H]1CC=CC[C@H](N)C(=O)N[C@@H](CCCCN)C(=O)N[C@@H](CCCCN)C(=O)N1)C(=O)O [compound 117, c[G(All)KKG(All)]F(3-iodo)L] (H-[AllylGly]KK[AllylGly][Phe(3-I)]L-OH; staple 1-4) :: >3097

Moving on to another compound below.
INPUT: // lookup Selectivity | system=hNTS2 receptor (Homo sapiens) | key= CC(C)C[C@H](NC(=O)[C@H](C/C=C/c1ccccc1)NC(=O)[C@@H]1CC=CC[C@H](N)C(=O)N[C@@H](CCCCN)C(=O)N[C@@H](CCCCN)C(=O)N1)C(=O)O [compound 161, c[G(All)KKG(All)]A(styryl) L] (H-[AllylGly]KK[AllylGly][Ala(E-styryl)]L-OH; staple 1-4)
OUTPUT: 766
